tested on: SF-268; test: NCI tumour cell line growth inhibition, 48 h
Activity calls are given as the source filed them. No stated cut-off is given here; in the data, active = GI50 up to about 1.1 µM and inactive = higher.
Parameter call: string, one of true (1) (active), false (0) (inactive)

These recorded examples may help you get a feel for the data.
# compound, system-under-test, cat
measured = [
    ("CCOC(=O)CN1CC(C2=C(O)CN(CC(=O)OCC)C2=O)=CC1=O", "SF-268", "false (0)"),
    ("CC[C@@]1(O)C(=O)OCc2c1cc1n(c2=O)Cc2c-1nc1ccccc1c2/C=N\\NC(=O)C(N)CCSC (stereo partly drawn)", "SF-268", "true (1)"),
    ("CN1CN(c2ccccc2)C2(CCN(C(=O)OC(C)(C)C)CC2)C1=O", "SF-268", "false (0)"),
    ("COc1cc(C2c3cc4c(cc3[C@@H](Nc3ccc(C(=O)O)cc3)C3COC(=O)[C@H]23)OCO4)cc(OC)c1O (stereo partly drawn)", "SF-268", "false (0)"),
    ("C[N+](C)(C)c1ncnc2c1ncn2C1CCCCO1 (stereo not drawn)", "SF-268", "false (0)"),
]

How was Cc1cc(=O)oc2cc(O)ccc12 classified in this test? false (0)
